Provide the recorded % cleaved pH 7.4, 24 h for the entries that follow.
- Method Notes: Cleavage kinetics (stability) of tyrosine based linker derivatives in buffer at pH 4 and pH 7.4, HPLC
- Assay type: physicochemical
- Condition Label: pH 7.4 buffer/acetonitrile, room temperature, 24 h, HPLC peak area
Please reply with the bare figure in % and do not write the unit itself.

Asked: # lookup: % cleaved pH 7.4, 24 h of N[C@@H](Cc1ccc(OC(=O)NCC[C@H](N)C(=O)N[C@@H](CSC2CC(=O)N(Cc3ccccc3)C2=O)C(=O)Nc2ccccc2)cc1)C(=O)Nc1ccccc1 (stereo partly drawn) [Example 12C]
Given back: 76

Asked: # lookup: % cleaved pH 7.4, 24 h of N[C@@H](CCNC(=O)Oc1ccc(C[C@H](N)C(=O)Nc2ccccc2)cc1)C(=O)NCCOCCOCCOCCn1cc(-c2ccccc2)nn1 [Example 10Cb]
Given back: 14

Asked: # lookup: % cleaved pH 7.4, 24 h of NC(=O)[C@H](CSC1CC(=O)N(Cc2ccccc2)C1=O)NC(=O)[C@@H](N)CCNC(=O)Oc1ccc(C[C@H](N)C(=O)Nc2ccccc2)cc1 (stereo partly drawn) [Example 1C]
Given back: 21

Asked: # lookup: % cleaved pH 7.4, 24 h of NC(=O)[C@H](CSC1CC(=O)N(Cc2ccccc2)C1=O)NC(=O)CCCCCNC(=O)[C@@H](N)CCNC(=O)Oc1ccc(C[C@H](N)C(=O)Nc2ccccc2)cc1 (stereo partly drawn) [Example 9C]
Given back: 25

Asked: # lookup: % cleaved pH 7.4, 24 h of NC[C@H](NC(=O)Oc1ccc(C[C@H](N)C(=O)Nc2ccccc2)cc1)C(=O)N[C@@H](CSC1CC(=O)N(Cc2ccccc2)C1=O)C(N)=O (stereo partly drawn) [Example 11C]
Given back: 100

Asked: # lookup: % cleaved pH 7.4, 24 h of NCC[C@H](NC(=O)Oc1ccc(C[C@H](N)C(=O)Nc2ccccc2)cc1)C(=O)N[C@@H](CSC1CC(=O)N(Cc2ccccc2)C1=O)C(N)=O (stereo partly drawn) [Example 5C]
Given back: 100

This collection of values is drawn from patent US9315543B2.
